The following molecules are shown together with reported log10(MIC80) values.
Tested on: Aspergillus fumigatus
Assay: Antifungal activity against Aspergillus fumigatus after 48 hrs by spectrophotometry
Assay type: functional
Note the log scale: values are log10 of MIC80 expressed in µg/mL.

Worked set:
1) OC(Cn1cncn1)(Cn1cncn1)c1ccc(F)cc1F    0.60
2) COc1cccc(-c2noc(C3CCN(CC(O)(Cn4cncn4)c4ccc(F)cc4F)CC3)n2)c1 (centres undefined)    0.60
3) OC(CN1CCC(c2nc(-c3ccc(C(F)(F)F)cc3)no2)CC1)(Cn1cncn1)c1ccc(F)cc1F (centres undefined)    0.30
4) OC(CN1CCC(c2nnc(-c3cccnc3)o2)CC1)(Cn1cncn1)c1ccc(F)cc1F (centres undefined)    0.60
5) COc1ccc(-c2nnc(C3CCN(CC(O)(Cn4cncn4)c4ccc(F)cc4F)CC3)o2)cc1 (centres undefined)    0.30

Report log10(MIC80) for Cc1ccccc1-c1nnc(C2CCN(CC(O)(Cn3cncn3)c3ccc(F)cc3F)CC2)o1 (centres undefined) please.
0.90

What do you get for CCc1ccc(-c2nnc(C3CCN(CC(O)(Cn4cncn4)c4ccc(F)cc4F)CC3)o2)cc1 (centres undefined) ?
0.60

What do you get for OC(CN1CCC(c2nnc(-c3ccccc3F)o2)CC1)(Cn1cncn1)c1ccc(F)cc1F (centres undefined) ?
0.00

What do you get for OC(CN1CCC(c2nnc(-c3cccc4ccccc34)o2)CC1)(Cn1cncn1)c1ccc(F)cc1F (centres undefined) ?
0.90

What do you get for OC(CN1CCC(c2nc(-c3cccs3)no2)CC1)(Cn1cncn1)c1ccc(F)cc1F (centres undefined) ?
0.30

====

The following compounds are shown together with reported MIC80 values.
Tested on: Nannizzia gypsea
Experiment: Antifungal activity against Microsporum gypseum after 48 hrs by spectrophotometry
Assay type: functional
Report as a plain number; the unit µg/mL is understood.

1) OC(CN1CCC(c2nnc(-c3ccco3)o2)CC1)(Cn1cncn1)c1ccc(F)cc1F (stereo not given)    4

Report MIC80 for OC(CN1CCC(c2nc(-c3ccco3)no2)CC1)(Cn1cncn1)c1ccc(F)cc1F (stereo not given) please.
2

What do you get for COc1ccc(-c2nnc(C3CCN(CC(O)(Cn4cncn4)c4ccc(F)cc4F)CC3)o2)cc1 (stereo not given) ?
1

What do you get for OC(CN1CCC(c2nc(-c3ccc(C(F)(F)F)cc3F)no2)CC1)(Cn1cncn1)c1ccc(F)cc1F (stereo not given) ?
0.5

What do you get for OC(CN1CCC(c2nc(-c3ccc(C(F)(F)F)cc3)no2)CC1)(Cn1cncn1)c1ccc(F)cc1F (stereo not given) ?
2

====

System: Nannizzia gypsea
Assay: Antifungal activity against Microsporum gypseum after 48 hrs by spectrophotometry
Format: functional
reportedMetric: MIC80 (µg/mL)
Report as a plain number; the unit µg/mL is understood.

1) OC(CN1CCC(c2nnc(-c3ccc(C(F)(F)F)cc3)o2)CC1)(Cn1cncn1)c1ccc(F)cc1F (centres undefined)    1
2) OC(CN1CCC(c2nnc(-c3ccccc3F)o2)CC1)(Cn1cncn1)c1ccc(F)cc1F (centres undefined)    2
3) OC(CN1CCC(c2nnc(-c3cccc4ccccc34)o2)CC1)(Cn1cncn1)c1ccc(F)cc1F (centres undefined)    8
4) Cc1cccc(-c2nnc(C3CCN(CC(O)(Cn4cncn4)c4ccc(F)cc4F)CC3)o2)c1 (centres undefined)    0.5
5) OC(CN1CCC(c2nnc(-c3ccc(Cl)cc3)o2)CC1)(Cn1cncn1)c1ccc(F)cc1F (centres undefined)    64
6) OC(CN1CCC(c2nc(-c3cccnc3)no2)CC1)(Cn1cncn1)c1ccc(F)cc1F (centres undefined)    0.5

Report MIC80 for OC(CN1CCC(c2nnc(-c3ccncc3)o2)CC1)(Cn1cncn1)c1ccc(F)cc1F (centres undefined) please.
4

What do you get for OC(CN1CCC(c2nnc(-c3ccccc3)o2)CC1)(Cn1cncn1)c1ccc(F)cc1F (centres undefined) ?
1

What do you get for O=[N+]([O-])c1ccc(-c2nnc(C3CCN(CC(O)(Cn4cncn4)c4ccc(F)cc4F)CC3)o2)cc1 (centres undefined) ?
2

====

Test system: Nannizzia gypsea
Assay: Antifungal activity against Microsporum gypseum after 48 hrs by spectrophotometry
Assay type: functional
reportedMetric: MIC80
State the value with its unit after it.

Worked set:
1. COc1cccc(-c2noc(C3CCN(CC(O)(Cn4cncn4)c4ccc(F)cc4F)CC3)n2)c1 (configuration not stated)    4 µg/mL
2. Cc1ccccc1-c1nnc(C2CCN(CC(O)(Cn3cncn3)c3ccc(F)cc3F)CC2)o1 (configuration not stated)    16 µg/mL

Now look at this one.
Report MIC80 for COc1ccc(-c2noc(C3CCN(CC(O)(Cn4cncn4)c4ccc(F)cc4F)CC3)n2)cc1 (configuration not stated) please.
2 µg/mL

====

Test system: Aspergillus fumigatus
Assay: Antifungal activity against Aspergillus fumigatus after 48 hrs by spectrophotometry
Format: functional
reportedMetric: MIC80 (µg/mL)
Report as a plain number; the unit µg/mL is understood.

1) OC(CN1CCC(c2nnc(-c3ccc(Cl)cc3)o2)CC1)(Cn1cncn1)c1ccc(F)cc1F (configuration not stated)    8

Query MIC80 on Aspergillus fumigatus for OC(CN1CCC(c2nnc(-c3c(F)cccc3F)o2)CC1)(Cn1cncn1)c1ccc(F)cc1F (configuration not stated)
0.5

What do you get for OC(CN1CCC(c2nc(-c3ccsc3)no2)CC1)(Cn1cncn1)c1ccc(F)cc1F (configuration not stated) ?
4

What do you get for O=[N+]([O-])c1ccc(-c2nnc(C3CCN(CC(O)(Cn4cncn4)c4ccc(F)cc4F)CC3)o2)cc1 (configuration not stated) ?
4

What do you get for OC(CN1CCC(c2nnc(-c3ccc(F)cc3)o2)CC1)(Cn1cncn1)c1ccc(F)cc1F (configuration not stated) ?
1

What do you get for OC(CN1CCC(c2nc(-c3ccc(F)cc3)no2)CC1)(Cn1cncn1)c1ccc(F)cc1F (configuration not stated) ?
2

What do you get for OC(CN1CCC(c2nnc(-c3ccccc3)o2)CC1)(Cn1cncn1)c1ccc(F)cc1F (configuration not stated) ?
2

====

Tested on: Aspergillus fumigatus
Assay: Antifungal activity against Aspergillus fumigatus after 48 hrs by spectrophotometry
Format: functional
reportedMetric: MIC80 (µg/mL)
Report as a plain number; the unit µg/mL is understood.

Worked set:
1. OC(CN1CCC(c2nnc(-c3ccncc3)o2)CC1)(Cn1cncn1)c1ccc(F)cc1F (centres undefined)    16
2. OC(CN1CCC(c2nc(-c3ccc(C(F)(F)F)cc3F)no2)CC1)(Cn1cncn1)c1ccc(F)cc1F (centres undefined)    4
3. OC(CN1CCC(c2nc(-c3cccnc3)no2)CC1)(Cn1cncn1)c1ccc(F)cc1F (centres undefined)    0.125
4. COc1ccc(-c2noc(C3CCN(CC(O)(Cn4cncn4)c4ccc(F)cc4F)CC3)n2)cc1 (centres undefined)    1
5. OC(CN1CCC(c2nnc(-c3ccc(C(F)(F)F)cc3)o2)CC1)(Cn1cncn1)c1ccc(F)cc1F (centres undefined)    2
6. OC(CN1CCC(c2nnc(-c3ccco3)o2)CC1)(Cn1cncn1)c1ccc(F)cc1F (centres undefined)    0.5
7. Cc1ccc(-c2noc(C3CCN(CC(O)(Cn4cncn4)c4ccc(F)cc4F)CC3)n2)cc1 (centres undefined)    4
8. OC(CN1CCC(c2nc(-c3ccco3)no2)CC1)(Cn1cncn1)c1ccc(F)cc1F (centres undefined)    1

Report MIC80 for Cc1cccc(-c2nnc(C3CCN(CC(O)(Cn4cncn4)c4ccc(F)cc4F)CC3)o2)c1 (centres undefined) please.
2

====

Tested on: Nannizzia gypsea
Assay: Antifungal activity against Microsporum gypseum after 48 hrs by spectrophotometry
Assay type: functional
The following compounds are shown together with reported MIC80 values.
Report as a plain number; the unit µg/mL is understood.

Worked set:
1. OC(CN1CCC(c2nnc(-c3ccc(F)cc3)o2)CC1)(Cn1cncn1)c1ccc(F)cc1F (centres undefined)    2
2. Cc1ccc(-c2noc(C3CCN(CC(O)(Cn4cncn4)c4ccc(F)cc4F)CC3)n2)cc1 (centres undefined)    8
3. OC(CN1CCC(c2nnc(-c3cccnc3)o2)CC1)(Cn1cncn1)c1ccc(F)cc1F (centres undefined)    4
4. OC(CN1CCC(c2nc(-c3ccc(F)cc3)no2)CC1)(Cn1cncn1)c1ccc(F)cc1F (centres undefined)    1
5. CCc1ccc(-c2nnc(C3CCN(CC(O)(Cn4cncn4)c4ccc(F)cc4F)CC3)o2)cc1 (centres undefined)    4
6. OC(CN1CCC(c2nnc(-c3c(F)cccc3F)o2)CC1)(Cn1cncn1)c1ccc(F)cc1F (centres undefined)    2
7. OC(CN1CCC(c2nc(-c3cccs3)no2)CC1)(Cn1cncn1)c1ccc(F)cc1F (centres undefined)    2
8. OC(CN1CCC(c2nc(-c3ccsc3)no2)CC1)(Cn1cncn1)c1ccc(F)cc1F (centres undefined)    4

Now look at this one.
Report MIC80 for OC(Cn1cncn1)(Cn1cncn1)c1ccc(F)cc1F please.
32
